Numbers sourced from paper PMC7265341.

Molecular target: CDK10/Cyclin L2 (Homo sapiens, UniProt Q15131)
Sequence (Q15131 whole entry): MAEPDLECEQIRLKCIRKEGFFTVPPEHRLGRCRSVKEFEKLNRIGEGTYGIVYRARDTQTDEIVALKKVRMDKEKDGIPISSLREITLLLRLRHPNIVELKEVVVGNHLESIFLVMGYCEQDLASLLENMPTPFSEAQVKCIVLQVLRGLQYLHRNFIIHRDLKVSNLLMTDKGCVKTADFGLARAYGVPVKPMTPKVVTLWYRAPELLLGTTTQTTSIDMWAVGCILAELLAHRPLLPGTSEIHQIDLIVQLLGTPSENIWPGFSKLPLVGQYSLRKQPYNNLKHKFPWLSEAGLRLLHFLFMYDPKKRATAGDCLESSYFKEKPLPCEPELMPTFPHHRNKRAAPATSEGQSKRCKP
Experiment: NanoBRET live-cell target engagement, CDK10-NanoLuc/Cyclin L2 in HEK-293
Details: read-out: CDK10/L2 IC50; independent experiment 3
reported.endpoint: pIC50
Convention used: pIC50 is expressed as -log10 of the molar concentration.

Quick one: pIC50 for CN(C)C/C=C/C(=O)Nc1ccc(C(=O)Nc2cccc(Nc3ncc(Cl)c(-c4c[nH]c5ccccc45)n3)c2)cc1 [THZ1] ?
5.82

###

Molecular target: CDK15/Cyclin Y (Homo sapiens)
Sequence (Q96Q40 whole entry): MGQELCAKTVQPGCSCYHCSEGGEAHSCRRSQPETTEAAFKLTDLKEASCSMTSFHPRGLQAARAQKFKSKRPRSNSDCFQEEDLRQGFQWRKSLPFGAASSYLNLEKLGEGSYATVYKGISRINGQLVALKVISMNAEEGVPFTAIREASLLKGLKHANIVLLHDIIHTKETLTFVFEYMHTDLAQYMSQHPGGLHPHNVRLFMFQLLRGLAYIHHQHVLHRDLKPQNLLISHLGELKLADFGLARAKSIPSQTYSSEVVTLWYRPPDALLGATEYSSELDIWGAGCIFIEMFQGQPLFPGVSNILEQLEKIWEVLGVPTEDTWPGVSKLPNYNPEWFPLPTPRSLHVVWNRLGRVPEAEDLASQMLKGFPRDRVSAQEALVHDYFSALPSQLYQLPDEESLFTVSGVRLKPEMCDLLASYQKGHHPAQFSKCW
Sequence (Q8ND76 whole entry partner): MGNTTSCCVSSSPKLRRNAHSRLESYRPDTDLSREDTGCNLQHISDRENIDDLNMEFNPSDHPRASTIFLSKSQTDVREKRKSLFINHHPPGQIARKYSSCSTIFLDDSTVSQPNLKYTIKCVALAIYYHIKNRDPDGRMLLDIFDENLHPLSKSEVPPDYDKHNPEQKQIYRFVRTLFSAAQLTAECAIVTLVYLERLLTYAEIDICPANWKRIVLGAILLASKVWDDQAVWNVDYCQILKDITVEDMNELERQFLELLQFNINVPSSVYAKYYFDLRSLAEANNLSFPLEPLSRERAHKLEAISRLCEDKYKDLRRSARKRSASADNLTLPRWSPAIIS
Experiment: NanoBRET live-cell target engagement, NanoLuc-CDK15/Cyclin Y in HEK-293
Type: binding
Details: 10µM; independent experiment 2
Exercise: for every item that follows, state its recorded CDK15/Y Inhibition at 10µM (%).
Express the result in % but write the number alone.

Could you tell me which CDK15/Y Inhibition at 10µM (%) is on file for Cc1c(Br)c(Br)c2c3c1nc(N1CCNCC1)n3CCC2.Cl [SEL 120-34A] ?
36.3

I have this compound here, O=C1NCCc2[nH]c(-c3ccncc3)cc21 [PHA-767491] , and I need its recorded CDK15/Y Inhibition at 10µM (%).
-10.5

Which CDK15/Y Inhibition at 10µM (%) reading was recorded for the compound CN(C)C/C=C/C(=O)Nc1ccc(C(=O)Nc2cccc(Nc3ncc(Cl)c(-c4c[nH]c5ccccc45)n3)c2)cc1 [THZ1] ?
89.2

Which CDK15/Y Inhibition at 10µM (%) value is on record for O=C1NC(=NCc2cccs2)S/C1=C\c1ccc2ncccc2c1 [RO-3306] ?
31.8
